Ki values, listed per item
targetSystem: Serotonin 3 (5-HT3) receptor (Rattus norvegicus, UniProt P35563+Q9JJ16)
Sequence (P35563 whole entry): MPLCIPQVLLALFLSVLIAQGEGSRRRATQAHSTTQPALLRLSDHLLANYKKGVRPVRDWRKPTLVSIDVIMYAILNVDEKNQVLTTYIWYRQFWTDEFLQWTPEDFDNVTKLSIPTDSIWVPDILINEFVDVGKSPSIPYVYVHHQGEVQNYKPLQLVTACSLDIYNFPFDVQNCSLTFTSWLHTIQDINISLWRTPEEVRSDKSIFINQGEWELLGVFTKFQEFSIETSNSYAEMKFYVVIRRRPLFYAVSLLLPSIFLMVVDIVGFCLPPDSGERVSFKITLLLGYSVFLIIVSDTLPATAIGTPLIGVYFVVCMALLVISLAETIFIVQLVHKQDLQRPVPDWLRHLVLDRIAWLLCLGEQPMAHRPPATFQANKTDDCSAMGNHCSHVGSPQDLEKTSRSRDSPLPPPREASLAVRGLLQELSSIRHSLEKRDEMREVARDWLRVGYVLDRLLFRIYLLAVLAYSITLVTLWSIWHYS
Sequence (Q9JJ16 whole entry): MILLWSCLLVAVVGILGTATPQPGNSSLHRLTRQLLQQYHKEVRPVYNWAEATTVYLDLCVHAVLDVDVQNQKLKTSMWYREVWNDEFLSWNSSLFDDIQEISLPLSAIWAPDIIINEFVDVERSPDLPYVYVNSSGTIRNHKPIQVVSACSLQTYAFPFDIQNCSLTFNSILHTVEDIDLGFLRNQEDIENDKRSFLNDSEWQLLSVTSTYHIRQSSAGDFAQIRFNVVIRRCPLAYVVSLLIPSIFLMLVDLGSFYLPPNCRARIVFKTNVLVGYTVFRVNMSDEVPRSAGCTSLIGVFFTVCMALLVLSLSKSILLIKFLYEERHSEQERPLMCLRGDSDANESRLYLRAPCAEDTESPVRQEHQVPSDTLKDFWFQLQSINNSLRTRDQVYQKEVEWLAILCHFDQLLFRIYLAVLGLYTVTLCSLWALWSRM
procedureSummary: Binding affinity to 5-hydroxytryptamine 3 receptor using [3H]quipazine as radioligand in rat cortex

{"molecule": "CCN(CC)CCNC(=O)c1cc(Cl)c(N)cc1OC [METOCLOPRAMIDE]", "targetSystem": "Serotonin 3 (5-HT3) receptor (Rattus norvegicus, UniProt P35563+Q9JJ16)", "Ki": "229 nM"}
{"molecule": "CN1[C@@H]2CC[C@H]1C[C@@H](OC(=O)c1c[nH]c3ccccc13)C2 [TROPISETRON]", "targetSystem": "Serotonin 3 (5-HT3) receptor (Rattus norvegicus, UniProt P35563+Q9JJ16)", "Ki": "0.603 nM"}
{"molecule": "c1ccc2nc(N3CCNCC3)ccc2c1 [QUIPAZINE]", "targetSystem": "Serotonin 3 (5-HT3) receptor (Rattus norvegicus, UniProt P35563+Q9JJ16)", "Ki": "1 nM"}

* * *

pA2 values, listed per item
targetSystem: Serotonin 3 (5-HT3) receptor
procedureSummary: Potency at neuronal 5-hydroxytryptamine 3 receptors in the rabbit heart
Format: protein-complex assay, Oryctolagus cuniculus
attributeMeasured: pA2

{"molecule": "COc1cc(N)c(Cl)cc1C(=O)N[C@H]1CCN2CCC[C@@H]1C2", "number": 8.9}
{"molecule": "CCN(CC)CCNC(=O)c1cc(Cl)c(N)cc1OC [METOCLOPRAMIDE]", "number": 7.3}
{"molecule": "C[N+]1(C)CCC(C(=O)c2c[nH]c3ccccc23)CC1.[I-]", "number": 9.2}
{"molecule": "CN1CC(=O)C2CCC(OC(=O)c3c[nH]c4ccccc34)C1C2 (stereo not given)", "number": 9.8}
{"molecule": "O=C(c1c[nH]c2ccccc12)C1CCNCC1", "number": 8.3}

Numbers sourced from ChEMBL document CHEMBL1124788.
